# system.name: T1, biotin-labeled cynomolgus monkey CD137 fused to human IgG1 Fc fragment (cynomolgus monkey, UniProt Q07011 24-186 (human entry), limits assumed, biotin-labeled)
# T1 construct: also called cyno CD137-Fc; not shown: human IgG1 Fc fragment
# T1 chain: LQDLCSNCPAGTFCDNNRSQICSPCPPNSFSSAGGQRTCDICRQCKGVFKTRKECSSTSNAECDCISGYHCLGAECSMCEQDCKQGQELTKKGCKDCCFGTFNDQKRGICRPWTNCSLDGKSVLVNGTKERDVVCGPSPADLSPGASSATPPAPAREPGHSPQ
# assay.method.text: bead ELISA (chemiluminescence), purified IgG on biotin labeled cyno CD137-Fc on streptavidin beads
readout.type: RLU (RLU)
Numbers only, in RLU.

[in] // query RLU value for entry DXDU01_3#019 (antibody, human IgG1, V domains shown, IgG: VH joined to human IgG1 CH1-Fc; also called dBBDu125) VH: QVQLVESGGGLVQPGRSLRLSCAASGFTFSIAWMHWVRQAPGKGLEWVAQIKDKVNGYTAYYAESVKGRFTISRDDSKNSIYLQMNSLKTEDTAVYYCRYVHYAAYYDVLGYGGVDAWGQGTTVTVSS VL: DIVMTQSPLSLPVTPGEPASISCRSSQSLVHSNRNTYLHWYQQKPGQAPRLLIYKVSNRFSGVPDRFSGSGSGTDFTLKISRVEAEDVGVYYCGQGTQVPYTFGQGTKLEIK
[out] 5090
